Where do the numbers come from? From patent US11795460B2.

- Tested on: TTR
- Assay explanation: TTR editing in HEK293_Cas9 cells transfected with dgRNAs (Table 4)
- Type: cell-based, human
- Particulars: HEK293_Cas9 cells (constitutively express Spy Cas9) transfected with dgRNAs
Measured endpoint: Avg % Deletion (%)

* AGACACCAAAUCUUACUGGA (tested as dual guide RNA, chemistry not given here) [CR003367] | 18.67
* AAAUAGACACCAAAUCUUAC (tested as dual guide RNA, chemistry not given here) [CR003366] | 37.26
* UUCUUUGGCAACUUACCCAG (tested as dual guide RNA, chemistry not given here) [CR003357] | 37.85
* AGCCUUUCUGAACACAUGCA (tested as dual guide RNA, chemistry not given here) [CR003351] | 21.24
* CUGGUAUUUGUGUCUGAGGC (tested as dual guide RNA, chemistry not given here) [CR003341] | 13.31
* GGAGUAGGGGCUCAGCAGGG (tested as dual guide RNA, chemistry not given here) [CR003382] | 25.49
* GGCGGCAAUGGUGUAGCGGC (tested as dual guide RNA, chemistry not given here) [CR003378] | 16.48
